# tgt: panel of 442 kinases (Mycobacterium tuberculosis)
# Construct: purchased Ambit Biosciences (scanMAXX KINOMEscan)
# Sequence (P9WI81 whole entry): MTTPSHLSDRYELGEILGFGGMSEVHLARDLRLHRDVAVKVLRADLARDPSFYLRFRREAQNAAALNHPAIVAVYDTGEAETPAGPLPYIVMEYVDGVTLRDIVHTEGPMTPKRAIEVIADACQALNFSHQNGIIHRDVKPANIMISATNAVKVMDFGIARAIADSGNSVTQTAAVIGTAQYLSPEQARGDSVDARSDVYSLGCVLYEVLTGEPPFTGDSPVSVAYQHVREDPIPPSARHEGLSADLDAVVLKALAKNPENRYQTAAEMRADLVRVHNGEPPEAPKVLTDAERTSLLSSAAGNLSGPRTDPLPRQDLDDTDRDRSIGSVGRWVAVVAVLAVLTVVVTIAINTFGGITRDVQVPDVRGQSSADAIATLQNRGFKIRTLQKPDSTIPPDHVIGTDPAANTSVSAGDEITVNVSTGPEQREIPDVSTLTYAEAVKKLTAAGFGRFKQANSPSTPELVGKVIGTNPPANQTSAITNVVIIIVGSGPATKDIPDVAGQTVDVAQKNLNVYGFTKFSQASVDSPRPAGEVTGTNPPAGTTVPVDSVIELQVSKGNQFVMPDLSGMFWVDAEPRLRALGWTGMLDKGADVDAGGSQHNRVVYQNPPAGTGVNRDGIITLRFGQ
# test.protocol: biochemical
# Type: binding
# condition.context: read-out: PKNB(M.tuberculosis) (% of control at 1 µM)
quantity.kind: remaining activity at 1 µM
Kindly report the value followed by its unit.

{"molecule": "CS(=O)(=O)N1CCN(Cc2cc3nc(-c4cccc5[nH]ncc45)nc(N4CCOCC4)c3s2)CC1 [Pictilisib]", "value.observed": "85%"}
{"molecule": "COc1ncc(-c2ccc3nccc(-c4ccnnc4)c3c2)cc1NS(=O)(=O)c1ccc(F)cc1F [Omipalisib]", "value.observed": "67%"}
{"molecule": "Nc1cc(C(F)(F)F)c(-c2cc(N3CCOCC3)nc(N3CCOCC3)n2)cn1 [Buparlisib]", "value.observed": "100%"}
{"molecule": "Cn1c(=O)n(-c2ccc(C(C)(C)C#N)cc2)c2c3cc(-c4cnc5ccccc5c4)ccc3ncc21 [Dactolisib]", "value.observed": "100%"}

With those in mind, consider the next molecule.
FC(F)c1nc2ccccc2n1-c1nc(N2CCOCC2)nc(N2CCOCC2)n1 [ZSTK474] yielded remaining activity at 1 µM of 86%
